- Target: human KDR (Homo sapiens, UniProt P35968)
- Construct: expressed in transfected cells; host or cells: NIH 3T3 cells
- Sequence (P35968 20-1356): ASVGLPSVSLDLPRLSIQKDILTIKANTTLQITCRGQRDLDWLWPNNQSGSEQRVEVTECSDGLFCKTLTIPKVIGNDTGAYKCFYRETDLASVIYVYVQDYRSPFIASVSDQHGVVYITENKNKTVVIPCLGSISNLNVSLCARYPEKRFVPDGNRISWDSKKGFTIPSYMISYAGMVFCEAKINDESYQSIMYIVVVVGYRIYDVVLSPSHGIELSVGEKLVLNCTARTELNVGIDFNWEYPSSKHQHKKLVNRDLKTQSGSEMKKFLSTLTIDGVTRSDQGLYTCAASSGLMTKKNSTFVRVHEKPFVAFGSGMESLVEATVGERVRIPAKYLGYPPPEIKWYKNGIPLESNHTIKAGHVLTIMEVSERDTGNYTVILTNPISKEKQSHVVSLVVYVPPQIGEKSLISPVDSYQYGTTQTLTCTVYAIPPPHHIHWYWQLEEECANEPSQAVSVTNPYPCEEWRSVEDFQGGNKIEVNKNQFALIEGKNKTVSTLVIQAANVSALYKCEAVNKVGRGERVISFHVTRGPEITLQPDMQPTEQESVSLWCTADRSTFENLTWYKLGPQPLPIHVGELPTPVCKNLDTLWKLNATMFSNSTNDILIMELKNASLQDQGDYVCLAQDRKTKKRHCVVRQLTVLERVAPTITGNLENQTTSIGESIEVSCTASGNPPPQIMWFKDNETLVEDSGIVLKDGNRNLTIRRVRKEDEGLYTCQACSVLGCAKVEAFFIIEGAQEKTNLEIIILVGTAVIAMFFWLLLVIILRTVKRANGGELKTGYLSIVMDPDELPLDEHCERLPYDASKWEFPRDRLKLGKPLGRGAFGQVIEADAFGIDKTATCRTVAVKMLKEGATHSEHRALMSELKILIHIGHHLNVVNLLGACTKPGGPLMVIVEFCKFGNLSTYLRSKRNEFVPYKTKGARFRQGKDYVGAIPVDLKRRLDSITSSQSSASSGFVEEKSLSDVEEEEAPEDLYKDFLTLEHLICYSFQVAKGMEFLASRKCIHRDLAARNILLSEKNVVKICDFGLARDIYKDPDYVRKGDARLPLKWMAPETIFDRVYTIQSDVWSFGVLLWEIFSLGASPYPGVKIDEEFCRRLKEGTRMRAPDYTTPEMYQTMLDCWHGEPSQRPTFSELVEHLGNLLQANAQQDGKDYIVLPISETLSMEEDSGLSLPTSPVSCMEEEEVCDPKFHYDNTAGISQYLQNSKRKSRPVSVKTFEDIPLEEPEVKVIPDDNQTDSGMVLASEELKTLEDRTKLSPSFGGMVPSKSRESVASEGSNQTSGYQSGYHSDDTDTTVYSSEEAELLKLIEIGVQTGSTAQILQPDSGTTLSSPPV
- Protocol summary: Inhibitory activity against KDR phosphorylation (NIH 3T3 cells transfected with human KDR, VEGF)
- Format: cell-based
- Assay setup: VEGF 100 ng/ml
Quantity: IC50 (nM)
Give the number; nM is assumed, so skip it.

CCCCN(CCCC)CCNC(=O)Nc1ccc(Oc2ncnc3cc(OC)c(OC)cc23)cc1[N+](=O)[O-] :: 176

Moving on to another molecule below.
Req: Specify measured IC50 for CCN(CC)CCNC(=O)Nc1ccc(Oc2ncnc3cc(OC)c(OC)cc23)cc1[N+](=O)[O-] .
Resp: 599
